The values you see were collected from ChEMBL document CHEMBL3763060.

molecular target: Class 1 phosphodiesterase PDEB1 (Trypanosoma brucei); test: Inhibition of recombinant Trypanosoma brucei PDEB1 using [3H]-cAMP as substrate after 15 mins by scintillation proximity assay
Sequence (Q8WQX9 whole entry): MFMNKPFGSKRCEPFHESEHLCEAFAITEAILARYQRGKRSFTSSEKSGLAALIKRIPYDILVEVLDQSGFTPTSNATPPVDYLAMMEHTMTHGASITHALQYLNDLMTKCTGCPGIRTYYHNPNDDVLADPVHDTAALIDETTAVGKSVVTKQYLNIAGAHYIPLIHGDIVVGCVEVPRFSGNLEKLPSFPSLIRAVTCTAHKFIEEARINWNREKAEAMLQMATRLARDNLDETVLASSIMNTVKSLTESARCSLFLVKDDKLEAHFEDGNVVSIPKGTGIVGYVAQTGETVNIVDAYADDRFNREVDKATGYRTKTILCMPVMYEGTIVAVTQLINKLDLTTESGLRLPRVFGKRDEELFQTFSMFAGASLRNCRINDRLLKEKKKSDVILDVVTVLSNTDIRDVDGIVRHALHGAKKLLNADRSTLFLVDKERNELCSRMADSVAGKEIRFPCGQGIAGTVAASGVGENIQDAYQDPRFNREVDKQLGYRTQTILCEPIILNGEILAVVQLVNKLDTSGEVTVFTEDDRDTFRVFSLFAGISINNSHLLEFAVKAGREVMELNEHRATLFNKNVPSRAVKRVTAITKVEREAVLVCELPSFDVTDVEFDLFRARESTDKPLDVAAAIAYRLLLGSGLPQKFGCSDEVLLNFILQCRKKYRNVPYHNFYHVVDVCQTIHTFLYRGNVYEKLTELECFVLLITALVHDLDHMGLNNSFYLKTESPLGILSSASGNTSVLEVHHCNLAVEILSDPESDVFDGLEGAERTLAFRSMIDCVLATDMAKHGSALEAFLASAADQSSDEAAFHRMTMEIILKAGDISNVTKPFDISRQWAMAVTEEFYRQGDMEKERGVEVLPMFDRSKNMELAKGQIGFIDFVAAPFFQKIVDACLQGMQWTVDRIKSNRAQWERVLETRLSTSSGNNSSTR
Experimental readout: IC50 (nM)
Express the result in nM but write the number alone.

Here are 2 molecules together with their reported answers.
Molecule	Experimental readout	Uom	Obs value
COc1ccc(C2=NN(C3CCCCCC3)C(=O)[C@@H]3CC=CC[C@H]23)cc1OCCCCOc1ccc(C(=O)O)cc1 (racemic)	IC50	nM	316
COc1ccc(C2=NN(C3CCCCCC3)C(=O)[C@@H]3CC=CC[C@H]23)cc1OCCCCn1cnc2ncncc21 (racemic)	IC50	nM	15.8

[Q] State the recorded IC50 for this entry: COc1ccc(C2=NN(C3CCCCCC3)C(=O)[C@@H]3CC=CC[C@H]23)cc1OCc1ccccn1 (racemic)
[A] 100
